Value source: patent US12162888B2

# EXPERIMENTAL TARGET: USP25 (USP25-His6, Boston Biochem E-546) (Homo sapiens, UniProt Q9UHP3)
# Construct: His6 (C); purchased Boston Biochem E-546
# EXPERIMENT SUMMARY: Ubiquitin-Rhodamine 110 Assay for USP25 Activity, Example A-3
# Type: biochemical
# ASSAY SETUP: Ubiquitin-Rhodamine 110 assay, Example A-3; read-out: USP25 A-3 IC50 range
pIC50: −log10 of the molar value.
RECORDED ENDPOINT: pIC50

Task item: Report pIC50 for `Cc1ccc2c(N)c(C(=O)N[C@H]3CCc4nc(N5CCN[C@H](C(F)F)C5)ccc4C3)sc2n1` tested on USP25 (USP25-His6, Boston Biochem E-546) (Homo sapiens, UniProt Q9UHP3).
Reply: < 5.70

Task item: Continue with Cc1ccc2c(N)c(C(=O)N[C@@H]3CCc4cc(N5CCNCC5)ccc4C3)sc2n1 (single isomer, unassigned)
Reply: 5.70 to 6.70

Task item: Continue with Cc1ccc2c(N)c(C(=O)N[C@@H]3CCc4cc(N5CC6CNCC(C5)O6)cc(F)c4C3)sc2n1 (single isomer, unassigned)
Reply: 6.70 to 7.30

Task item: Continue with `Cc1ccc2c(N)c(C(=O)N[C@H]3CCc4nc(N5C[C@H](N)[C@]6(CCOC6)C5)ccc4C3)sc2n1`
Reply: < 5.70

Task item: Continue with `CO[C@]12CCN[C@@H]1CN(c1ccc3c(n1)CC[C@H](NC(=O)c1sc4nc(C)ccc4c1N)C3)C2`
Reply: 5.70 to 6.70

Task item: Continue with `Cc1ccc2c(N)c(C(=O)N[C@H]3CCc4nc(N5CC[C@@](N)(CO)C5)ccc4C3)sc2n1`
Reply: < 5.70

Task item: Continue with Cc1cnc2c(N)c(C(=O)N[C@@H]3CCc4cc(N5C[C@@H]6C[C@H]5CN6)ccc4C3)sc2n1 (single isomer, unassigned)
Reply: 5.70 to 6.70

---

# EXPERIMENTAL TARGET: USP28 (His-tagged USP28-FL-mammalian) (Homo sapiens, UniProt Q96RU2)
# Construct: Expression of USP28 (1-1077)-TEV-6*His (pTT5 vector) was carried out in Expi293f cells; made in house; host or cells: Expi293F cells (pTT5 vector)
# Sequence (Q96RU2 whole entry): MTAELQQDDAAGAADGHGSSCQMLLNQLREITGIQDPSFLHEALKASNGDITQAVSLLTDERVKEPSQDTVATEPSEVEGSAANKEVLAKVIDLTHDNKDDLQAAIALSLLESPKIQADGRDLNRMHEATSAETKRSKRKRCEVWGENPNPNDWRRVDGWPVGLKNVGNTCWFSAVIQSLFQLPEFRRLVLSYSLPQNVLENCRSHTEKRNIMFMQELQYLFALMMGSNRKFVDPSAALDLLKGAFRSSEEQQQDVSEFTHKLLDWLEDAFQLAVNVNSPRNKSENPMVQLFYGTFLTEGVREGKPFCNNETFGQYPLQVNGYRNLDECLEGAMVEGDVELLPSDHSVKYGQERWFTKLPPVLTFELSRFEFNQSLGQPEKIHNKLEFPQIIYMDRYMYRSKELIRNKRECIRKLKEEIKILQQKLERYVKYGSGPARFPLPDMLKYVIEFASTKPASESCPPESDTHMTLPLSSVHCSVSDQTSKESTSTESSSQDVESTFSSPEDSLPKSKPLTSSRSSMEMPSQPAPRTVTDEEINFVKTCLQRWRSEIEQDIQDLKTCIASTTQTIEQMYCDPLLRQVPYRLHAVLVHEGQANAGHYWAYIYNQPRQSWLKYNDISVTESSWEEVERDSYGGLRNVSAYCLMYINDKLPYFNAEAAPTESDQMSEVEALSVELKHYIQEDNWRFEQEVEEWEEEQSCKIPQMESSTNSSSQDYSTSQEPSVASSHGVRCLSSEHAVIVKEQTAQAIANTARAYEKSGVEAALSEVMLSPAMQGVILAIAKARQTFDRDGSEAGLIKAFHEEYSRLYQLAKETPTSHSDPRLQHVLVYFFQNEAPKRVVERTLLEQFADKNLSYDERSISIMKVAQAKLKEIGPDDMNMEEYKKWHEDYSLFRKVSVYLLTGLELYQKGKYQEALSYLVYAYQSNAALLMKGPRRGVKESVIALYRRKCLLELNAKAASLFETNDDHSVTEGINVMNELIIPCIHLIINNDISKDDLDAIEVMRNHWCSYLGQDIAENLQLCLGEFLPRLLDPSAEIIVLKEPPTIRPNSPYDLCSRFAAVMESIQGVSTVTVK
# EXPERIMENT SUMMARY: Ubiquitin-Rhodamine 110 Assay for USP28 Activity, Example A-1(a)
# Assay type: biochemical
# ASSAY SETUP: biochemical IC50 range, Ubiquitin-Rhodamine 110 assay, read-out: USP28 A-1(a)
pIC50: −log10 of the molar value.
RECORDED ENDPOINT: pIC50

Task item: Need pIC50, item `Cc1ccc2c(N)c(C(=O)N[C@H]3COc4cc(N5C[C@@H](N)C6(C5)OCCO6)ccc4C3)sc2n1`
Reply: 6.70 to 7.30

Task item: Continue with `CO[C@@H]1CN(c2ccc3c(c2)OC[C@H](NC(=O)c2sc4nc(C)cnc4c2N)C3)C[C@@H]1N`
Reply: 6.70 to 7.30

Task item: Continue with COC1CCCN(c2cc(F)c3c(c2)OCC(NC(=O)c2sc4nc(C)ccc4c2N)C3)CC1N (stereo not drawn)
Reply: 7.30 to 9.00

Task item: Continue with Cc1ccc2c(N)c(C(=O)N[C@H]3COc4cc(N5CC6[C@H](C5)NCC6(F)F)ccc4C3)sc2n1 (stereo partly drawn)
Reply: 7.30 to 9.00

Task item: Continue with `CO[C@H]1CN(c2cc(F)c3c(c2)OC[C@H](NC(=O)c2sc4nc(C)ncc4c2N)C3)C[C@@H]1N`
Reply: 5.70 to 6.70

Task item: Continue with `Cc1ccc2c(N)c(C(=O)N[C@H]3COc4cc(N5CC[C@]6(CCCN6)C5)cc(F)c4C3)sc2n1`
Reply: 7.30 to 9.00

---

# EXPERIMENTAL TARGET: USP28 (His-tagged USP28-FL-mammalian) (Homo sapiens)
# Construct: Expression of USP28 (1-1077)-TEV-6*His (pTT5 vector) was carried out in Expi293f cells; made in house; host or cells: Expi293F cells (pTT5 vector)
# EXPERIMENT SUMMARY: Ubiquitin-Rhodamine 110 Assay for USP28 Activity, Example A-1(a)
# Assay type: biochemical
# ASSAY SETUP: Ubiquitin-Rhodamine 110 assay, read-out: USP28 A-1(a) IC50 range
pIC50: −log10 of the molar value.
I'd be grateful if you could share measured pIC50 for these entries.

Task item: Need pIC50, item `CO[C@H]1CN(c2ccc3c(c2)OC[C@H](NC(=O)c2sc4nc(C)cnc4c2N)C3)C[C@@H]1N`
Reply: 7.30 to 9.00

Task item: Continue with Cc1nc2sc(C(=O)N[C@H]3CCc4cc(N5CCNCC5)ccc4C3)c(N)c2s1 (single isomer, unassigned)
Reply: 5.70 to 6.70

Task item: Continue with Cc1ccc2c(N)c(C(=O)N[C@H]3CCc4c(C#N)c(N5CC6CNCC(C5)O6)cc(F)c4C3)sc2n1 (single isomer, unassigned)
Reply: 7.30 to 9.00

Task item: Continue with `Cc1ccc2c(N)c(C(=O)N[C@H]3COc4cc(N5C[C@H]6CC[C@@H]5CN6)ncc4C3)sc2n1`
Reply: 7.30 to 9.00

---

I'd be grateful if you could share measured IC50 for these entries.
# EXPERIMENTAL TARGET: USP25 (USP25-His6, Boston Biochem E-546) (Homo sapiens, UniProt Q9UHP3)
# Construct: His6 (C); purchased Boston Biochem E-546
# EXPERIMENT SUMMARY: Ubiquitin-Rhodamine 110 Assay for USP25 Activity, Example A-3
# Assay type: biochemical
# ASSAY SETUP: Ubiquitin-Rhodamine 110 assay, Example A-3; read-out: USP25 A-3 IC50 range

Task item: Report IC50 for CN[C@H]1CCN(c2ccc3c(c2)CC[C@H](NC(=O)c2sc4nc(C)cnc4c2N)C3)C1 (single isomer, unassigned) [Example 11-25] tested on USP25 (USP25-His6, Boston Biochem E-546) (Homo sapiens, UniProt Q9UHP3).
Reply: 200 to 2000 nM

Task item: Continue with COC[C@@H]1CN(c2ccc3c(n2)OC[C@H](NC(=O)c2sc4nc(C)cc(C)c4c2N)C3)C[C@@H]1N [Example 348]
Reply: > 2000 nM

Task item: Continue with CN[C@@H]1CCN(c2ccc3c(c2)CC[C@@H](NC(=O)c2sc4nc(C)cnc4c2N)C3)C1 (single isomer, unassigned) [Example 11-28]
Reply: > 2000 nM

---

# EXPERIMENTAL TARGET: USP25 (USP25-His6, Boston Biochem E-546) (Homo sapiens, UniProt Q9UHP3)
# Construct: His6 (C); purchased Boston Biochem E-546
# EXPERIMENT SUMMARY: Ubiquitin-Rhodamine 110 Assay for USP25 Activity, Example A-3
# Format: biochemical
# ASSAY SETUP: biochemical IC50 range, Ubiquitin-Rhodamine 110 assay, Example A-3; read-out: USP25 A-3
pIC50: −log10 of the molar value.
I'd be grateful if you could share measured pIC50 for these entries.

Task item: Need pIC50, item COC1CN(c2ccc3c(c2)CC[C@H](NC(=O)c2sc4nc(C)cnc4c2N)C3)CC1N (stereo in doubt) [Example 130]
Reply: 5.70 to 6.70

Task item: Continue with Cc1ccc2c(N)c(C(=O)N[C@H]3COc4cc(N5C[C@@H](N)[C@@](C)(CF)C5)ccc4C3)sc2n1 [Example 660]
Reply: 7.30 to 9.00

Task item: Continue with O=C(N[C@H]1COc2cc(N3CCNCC3)ccc2C1)c1ccc(NCc2cccc3cn[nH]c23)nc1 [Example 698]
Reply: 5.70 to 6.70

Task item: Continue with Cc1ccc2c(N)c(C(=O)N[C@H]3COc4cc(N5C[C@H](N)[C@]6(CCOC6)C5)ccc4C3)sc2n1 [Example 656]
Reply: 5.70 to 6.70

---

# EXPERIMENTAL TARGET: USP25 (USP25-His6, Boston Biochem E-546) (Homo sapiens, UniProt Q9UHP3)
# Construct: His6 (C); purchased Boston Biochem E-546
# Sequence (Q9UHP3 1-1055): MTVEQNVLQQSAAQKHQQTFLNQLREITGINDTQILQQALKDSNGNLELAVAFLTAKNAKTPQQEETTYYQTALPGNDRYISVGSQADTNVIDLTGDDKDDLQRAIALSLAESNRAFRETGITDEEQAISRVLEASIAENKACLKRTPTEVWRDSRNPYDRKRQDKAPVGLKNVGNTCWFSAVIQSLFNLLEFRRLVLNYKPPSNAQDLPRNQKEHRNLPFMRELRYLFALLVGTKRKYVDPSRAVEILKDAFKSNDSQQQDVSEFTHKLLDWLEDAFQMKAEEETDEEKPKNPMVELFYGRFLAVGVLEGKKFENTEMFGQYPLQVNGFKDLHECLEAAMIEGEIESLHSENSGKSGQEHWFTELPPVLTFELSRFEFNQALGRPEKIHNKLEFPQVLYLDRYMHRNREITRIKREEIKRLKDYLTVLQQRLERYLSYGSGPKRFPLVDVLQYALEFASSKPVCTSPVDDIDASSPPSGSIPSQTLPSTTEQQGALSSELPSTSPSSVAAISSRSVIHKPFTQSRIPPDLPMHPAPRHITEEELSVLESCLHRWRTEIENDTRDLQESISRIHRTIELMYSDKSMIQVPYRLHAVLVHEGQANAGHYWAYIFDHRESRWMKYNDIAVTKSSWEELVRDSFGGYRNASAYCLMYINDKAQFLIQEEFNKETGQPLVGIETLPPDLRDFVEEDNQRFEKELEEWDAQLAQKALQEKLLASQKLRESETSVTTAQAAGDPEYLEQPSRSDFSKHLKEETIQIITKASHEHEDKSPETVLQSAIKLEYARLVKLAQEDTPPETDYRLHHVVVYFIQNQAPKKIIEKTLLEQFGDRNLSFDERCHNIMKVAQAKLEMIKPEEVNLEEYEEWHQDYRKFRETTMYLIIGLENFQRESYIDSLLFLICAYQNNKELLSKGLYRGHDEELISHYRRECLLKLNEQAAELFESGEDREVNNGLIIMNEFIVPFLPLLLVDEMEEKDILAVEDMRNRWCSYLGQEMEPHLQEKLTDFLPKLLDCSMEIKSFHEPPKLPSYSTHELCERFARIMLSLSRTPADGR
# EXPERIMENT SUMMARY: Ubiquitin-Rhodamine 110 Assay for USP25 Activity, Example A-3
# Type: biochemical
# ASSAY SETUP: Ubiquitin-Rhodamine 110 assay, Example A-3; read-out: USP25 A-3 IC50 range
I'd be grateful if you could share measured IC50 for these entries.

Task item: Need IC50, item Cc1ccc2c(N)c(C(=O)N[C@H]3COc4cc(N5CCNCC5)ccc4[C@@H]3C)sc2n1 (single isomer, unassigned) [Example 11-17]
Reply: > 2000 nM

Task item: Continue with `Cc1ccc2c(N)c(C(=O)N[C@@H]3CCc4nc(N5C[C@@H](N)[C@H](C(F)F)C5)ncc4C3)sc2n1`
Reply: > 2000 nM

Task item: Continue with Cc1nc2sc(C(=O)N[C@H]3CCc4cc(N5CCNCC5)ccc4C3)c(N)c2s1 (single isomer, unassigned)
Reply: 200 to 2000 nM
